# METHOD: Acute toxicity in iv dosed mouse assessed as lethal dose
# Type: organism-based
# APPLIED CONDITIONS: in vivo

>  <STRUCTURE NOTATION>
CN1CCN(c2c(F)cc3c(=O)c(C(=O)O)c4scc5n4c3c2OC5)CC1

>  <LD50 (mg/kg)>
237

$$$$

###

# System: Escherichia coli
# METHOD: Antibacterial activity against Escherichia coli assessed as bacterial growth inhibition measured after 24 hrs by broth micro dilution method
# Format: functional

>  <STRUCTURE NOTATION>
CCn1cc(C(=O)O)c(=O)c2cc(F)c(-n3cc(CO[C@H]4OC[C@@H](OC(C)=O)[C@H](OC(C)=O)[C@H]4OC(C)=O)nn3)c(F)c21

>  <MIC>
> 6.25 µg/mL

$$$$
>  <STRUCTURE NOTATION>
CCn1cc(C(=O)O)c(=O)c2cc(F)c(-n3cc(CO[C@H]4O[C@H](COC(C)=O)[C@@H](OC(C)=O)[C@H](OC(C)=O)[C@H]4OC(C)=O)nn3)c(F)c21

>  <MIC>
> 6.25 µg/mL

$$$$
>  <STRUCTURE NOTATION>
CCn1cc(C(=O)O)c(=O)c2cc(F)c(-n3cc(CO[C@H]4OC[C@@H](OC(C)=O)[C@@H](OC(C)=O)[C@@H]4OC(C)=O)nn3)c(F)c21

>  <MIC>
> 6.25 µg/mL

$$$$
